Source of measurements: patent US11419918B2

- Test system: BDL-induced cholestasis hepatic fibrosis in rats
- TEST: Bile duct ligation (BDL)-induced hepatic fibrosis in rats (biliary cirrhosis rat model)
- Format: in vivo, SD rats
- MEASUREMENT CONTEXT: 50 μg/kg subcutaneous every two days, 14 days
Numbered stars: 1 amine (or outer) side, 2 acyl side, 3 side chain; on linkers, the order of the positions; unused ones are H or OH. Square brackets hold non-standard residues; d marks the D form. Primed or numbered codes have the meaning given here. Side chains are listed from the residue outwards. Ends that are not written are not given here. * marks the point of attachment. C18 diacid = O=C(O)CCCCCCCCCCCCCCCCC(=O)*; γGlu = O=C(O)[C@H](CCC(=O)[*:2])N[*:1]; Palmitoyl = CCCCCCCCCCCCCCCC(=O)*; Nle = CCCC[C@H](N)C(=O)O; PEG2′ = not defined here; Aib = CC(C)(N)C(=O)O
ASSAY METRIC: BDL-induced hepatic fibrosis and inflammation (HE, Sirius Red, IHC sections)

SUBSTANCE	ENDPOINT VALUE
His-(D-Ser)-Gln-Gly-Thr-Phe-Thr-Ser-Asp-Tyr-Ser-Lys-Tyr-Leu-Asp-Ser-Lys(PEG2-PEG2-γGlu-CO(CH2)16CO2H)-Ala-Ala-His-Asp-Phe-Val-Glu-Trp-Leu-Leu-Arg-Ala-NH2 (H[dS]QGTFTSDYSKYLDSK([PEG2′-PEG2′-γGlu-C18 diacid])AAHDFVEWLLRA-NH2) [Compound 17]	significantly reduce
His-(D-Ser)-Gln-Gly-Thr-Phe-Thr-Ser-Asp-Lys(PEG2-PEG2-CO(CH2)16CO2H-Ser-Lys-Tyr-Leu-Asp-Aib-Arg-Arg-Ala-Gln-Asp-Phe-Val-Gln-Trp-Leu-Nle-Asn-Thr-Gly-Gly-Pro-Ser-Ser-Gly-Ala-Pro-Pro-Pro-Ser-NH2 (H[dS]QGTFTSDK([PEG2′-PEG2′-C18 diacid])SKYLD[Aib]RRAQDFVQWL[Nle]NTGGPSSGAPPPS-NH2) [Compound 46]	significantly reduce
His-(D-Ser)-Gln-Gly-Thr-Phe-Thr-Ser-Asp-Tyr-Ser-Lys-Tyr-Leu-Asp-Lys(PEG2-PEG2-γGlu-CO(CH2)14CH3)-Arg-Arg-Ala-Gln-Asp-Phe-Val-Gln-Trp-Leu-Nle-Asn-Thr-Gly-Gly-Pro-Ser-Ser-Gly-Ala-Pro-Pro-Pro-Ser-NH2 (H[dS]QGTFTSDYSKYLDK([PEG2′-PEG2′-γGlu-Palmitoyl])RRAQDFVQWL[Nle]NTGGPSSGAPPPS-NH2) [Compound 37]	significantly reduce

---

- System: BDL-induced cholestasis hepatic fibrosis in rats
- TEST: Bile duct ligation (BDL)-induced hepatic fibrosis in rats (biliary cirrhosis rat model)
- Assay type: in vivo, SD rats
- MEASUREMENT CONTEXT: 50 μg/kg subcutaneous every two days, 14 days
- Description: 1. Experimental Drugs: polypeptide compounds 3, 6, 7, 10, 17, 20, 37, 38, 39, 40, 44, 46, Obeticholic Acid (Abbr. OCA, CAS:459789-99-2, purchased from Zhejiang Warrant Pharmaceutical Co., Ltd.) and Liraglutide. Saving condition was −20° C. 128 male SD rats with body weight of 200-230 g were randomly divided into sixteen groups, which were respectively: SD rats with body weight of 200-230 g at SPF level were provided by Lanzhou University Laboratory Animal Center. […]
Numbered stars: 1 amine (or outer) side, 2 acyl side, 3 side chain; on linkers, the order of the positions; unused ones are H or OH. Square brackets hold non-standard residues; d marks the D form. Primed or numbered codes have the meaning given here. Side chains are listed from the residue outwards. Ends that are not written are not given here. * marks the point of attachment. C18 diacid = O=C(O)CCCCCCCCCCCCCCCCC(=O)*; γGlu = O=C(O)[C@H](CCC(=O)[*:2])N[*:1]; Palmitoyl = CCCCCCCCCCCCCCCC(=O)*; Nle = CCCC[C@H](N)C(=O)O; PEG2′ = not defined here; Aib = CC(C)(N)C(=O)O

SUBSTANCE	ALT in the serum (FIG. 6)
His-(D-Ser)-Gln-Gly-Thr-Phe-Thr-Ser-Asp-Tyr-Ser-Lys-Tyr-Leu-Asp-Aib-Lys(PEG2-PEG2-γGlu-CO(CH2)16CO2H)-Arg-Ala-Gln-Asp-Phe-Val-Gln-Trp-Leu-Met-Asn-Thr-Gly-Gly-Pro-Ser-Ser-Gly-Ala-Pro-Pro-Pro-Ser-NH2 (H[dS]QGTFTSDYSKYLD[Aib]K([PEG2′-PEG2′-γGlu-C18 diacid])RAQDFVQWLMNTGGPSSGAPPPS-NH2) [Compound 7]	significantly inhibit
His-(D-Ser)-Gln-Gly-Thr-Phe-Thr-Ser-Asp-Tyr-Ser-Lys-Tyr-Leu-Asp-Lys(PEG2-PEG2-γGlu-CO(CH2)14CH3)-Arg-Arg-Ala-Gln-Asp-Phe-Val-Gln-Trp-Leu-Nle-Asn-Thr-Gly-Gly-Pro-Ser-Ser-Gly-Ala-Pro-Pro-Pro-Ser-NH2 (H[dS]QGTFTSDYSKYLDK([PEG2′-PEG2′-γGlu-Palmitoyl])RRAQDFVQWL[Nle]NTGGPSSGAPPPS-NH2) [Compound 37]	significantly inhibit

---

- Test system: BDL-induced cholestasis hepatic fibrosis in rats
- TEST: Bile duct ligation (BDL)-induced hepatic fibrosis in rats (biliary cirrhosis rat model)
- Assay type: in vivo, SD rats
- MEASUREMENT CONTEXT: 50 μg/kg subcutaneous every two days, 14 days
Numbered stars: 1 amine (or outer) side, 2 acyl side, 3 side chain; on linkers, the order of the positions; unused ones are H or OH. Square brackets hold non-standard residues; d marks the D form. Primed or numbered codes have the meaning given here. Side chains are listed from the residue outwards. Ends that are not written are not given here. * marks the point of attachment. C18 diacid = O=C(O)CCCCCCCCCCCCCCCCC(=O)*; γGlu = O=C(O)[C@H](CCC(=O)[*:2])N[*:1]; Palmitoyl = CCCCCCCCCCCCCCCC(=O)*; Nle = CCCC[C@H](N)C(=O)O; PEG2′ = not defined here; Aib = CC(C)(N)C(=O)O

SUBSTANCE	ALT in the serum (FIG. 6)
His-(D-Ser)-Gln-Gly-Thr-Phe-Thr-Ser-Asp-Lys(PEG2-PEG2-CO(CH2)16CO2H-Ser-Lys-Tyr-Leu-Asp-Aib-Arg-Arg-Ala-Gln-Asp-Phe-Val-Gln-Trp-Leu-Nle-Asn-Thr-Gly-Gly-Pro-Ser-Ser-Gly-Ala-Pro-Pro-Pro-Ser-NH2 (H[dS]QGTFTSDK([PEG2′-PEG2′-C18 diacid])SKYLD[Aib]RRAQDFVQWL[Nle]NTGGPSSGAPPPS-NH2) [Compound 46]	significantly inhibit
His-(D-Ser)-Gln-Gly-Thr-Phe-Thr-Ser-Asp-Tyr-Ser-Lys-Tyr-Leu-Asp-Lys(PEG2-PEG2-γGlu-CO(CH2)14CH3)-Arg-Arg-Ala-Gln-Asp-Phe-Val-Gln-Trp-Leu-Leu-Asn-Thr-Gly-Gly-Pro-Ser-Ser-Gly-Ala-Pro-Pro-Pro-Ser-NH2 (H[dS]QGTFTSDYSKYLDK([PEG2′-PEG2′-γGlu-Palmitoyl])RRAQDFVQWLLNTGGPSSGAPPPS-NH2) [Compound 40]	significantly inhibit

---

- Test system: BDL-induced cholestasis hepatic fibrosis in rats
- TEST: Bile duct ligation (BDL)-induced hepatic fibrosis in rats (biliary cirrhosis rat model)
- Type: in vivo, SD rats
- MEASUREMENT CONTEXT: 50 μg/kg subcutaneous every two days, 14 days
Numbered stars: 1 amine (or outer) side, 2 acyl side, 3 side chain; on linkers, the order of the positions; unused ones are H or OH. Square brackets hold non-standard residues; d marks the D form. Primed or numbered codes have the meaning given here. Side chains are listed from the residue outwards. Ends that are not written are not given here. * marks the point of attachment. C18 diacid = O=C(O)CCCCCCCCCCCCCCCCC(=O)*; γGlu = O=C(O)[C@H](CCC(=O)[*:2])N[*:1]; Palmitoyl = CCCCCCCCCCCCCCCC(=O)*; Nle = CCCC[C@H](N)C(=O)O; PEG2′ = not defined here; Aib = CC(C)(N)C(=O)O
ASSAY METRIC: ALT in the serum (FIG. 6)

SUBSTANCE	TARGET OR SYSTEM	ENDPOINT VALUE
His-(D-Ser)-Gln-Gly-Thr-Phe-Thr-Ser-Asp-Tyr-Ser-Lys-Tyr-Leu-Asp-Lys(PEG2-PEG2-γGlu-CO(CH2)16CO2H)-Arg-Arg-Ala-Gln-Asp-Phe-Val-Gln-Trp-Leu-Nle-Asn-Thr-Gly-Gly-Pro-Ser-Ser-Gly-Ala-Pro-Pro-Pro-Ser-NH2 (H[dS]QGTFTSDYSKYLDK([PEG2′-PEG2′-γGlu-C18 diacid])RRAQDFVQWL[Nle]NTGGPSSGAPPPS-NH2) [Compound 38]	BDL-induced cholestasis hepatic fibrosis in rats	significantly inhibit
His-(D-Ser)-Gln-Gly-Thr-Phe-Thr-Ser-Asp-Tyr-Ser-Lys-Tyr-Leu-Asp-Ser-Lys(PEG2-PEG2-γGlu-CO(CH2)16CO2H)-Ala-Ala-His-Asp-Phe-Val-Glu-Trp-Leu-Leu-Arg-Ala-NH2 (H[dS]QGTFTSDYSKYLDSK([PEG2′-PEG2′-γGlu-C18 diacid])AAHDFVEWLLRA-NH2) [Compound 17]	BDL-induced cholestasis hepatic fibrosis in rats	significantly inhibit
His-(D-Ser)-Gln-Gly-Thr-Phe-Thr-Ser-Asp-Lys(PEG2-PEG2-CO(CH2)14CH3)-Ser-Lys-Tyr-Leu-Asp-Aib-Arg-Arg-Ala-Gln-Asp-Phe-Val-Gln-Trp-Leu-Leu-Asn-Thr-Gly-Gly-Pro-Ser-Ser-Gly-Ala-Pro-Pro-Pro-Ser-NH2 (H[dS]QGTFTSDK([PEG2′-PEG2′-Palmitoyl])SKYLD[Aib]RRAQDFVQWLLNTGGPSSGAPPPS-NH2) [Compound 44]	BDL-induced cholestasis hepatic fibrosis in rats	significantly inhibit
